# test.protocol: Tmax in Wistar rat plasma at 10 mg/kg, po
# Type: ADME, organism-based
# Design: dose 10 mg/kg, route oral
recorded.endpoint: Tmax (h)
Kindly provide the numeric value in h only, without the unit symbol.

Req: Name the recorded Tmax for CC(=O)N[C@@H](C)CCc1ccc(Oc2ccc(OC(C)C)nc2)cc1 .
Resp: 2

---

# measurement.target: Acetyl-CoA carboxylase 1 (Rattus norvegicus, UniProt P11497)
# test.protocol: Inhibition of N-terminal His-tagged rat recombinant ACC1 expressed in high five insect cells by ATP consumption assay
recorded.endpoint: pIC50
# log scale: pIC50 equals minus log10 of the concentration in mol/L

Req: Bench note: what pIC50 did CC(=O)NC(C)CCc1ccc(Oc2ccc(OCc3ccccc3)nc2)cc1 (stereo not given) show?
Resp: 6.15

Req: Returns the measured pIC50 for the input compound. Input: CC(=O)NCCC[C@H]1OC[C@H](Oc2ccc(OCc3ccccc3)cn2)CO1
Resp: 4.85

Continuing:
Req: May I ask what pIC50 has been recorded for CC(=O)N[C@@H](C)CO[C@H]1CC[C@H](Oc2ccc(OC(C)C)nc2)CC1 ?
Resp: 4.98

Req: // returns reported pIC50 for input CC(=O)NCCCC1OCC(Cc2cccc(OCCC3CCCC3)c2)CO1 (stereo not given)
Resp: 4.60
